TEST SYSTEM: SARS-CoV RBD (SARS-CoV, UniProt P59594)
EXPERIMENT DESCRIPTION: ELISA
Could you please report measured EC50 for the items listed next?

What the record says about C123 (antibody, V domains shown) VH: EVQLVESGGGLIQPGGSLRLSCAASGVTVSRNYMSWVRQAPGKGLEWVSVIYSGGSTYYADSVKGRFTISRDNSKNTLYLQMNSLRAEDTAVYYCARDLSAAFDIWGQGTMVTVSS VL: DIQLTQSPSFLSASVGDRVTITCRASQGISSYLAWYQQKPGKAPKLLIYAASTLQSGVPSRFSGSGSGTEFTLTISSLQPEDFATYYCQQLNSYPPAFGQGTRLEIK : EC50 is > 1 µg/mL

C155 (antibody, V domains shown) VH: EVQLVESGGGLIQPGGSLRLSCAASGFIVSSNYMSWVRQAPGKGLEWVSVIYSGGSTFYADSVKGRFTISRDNSKNTLYLQMNSLRAEDTAVYYCARDFGEFYFDYWGQGTLVTVSS VL: EIVMTQSPATLSVSPGERATLSCRASQSVSSNLAWYQQKPGQAPRLLIYGASTRATAIPARFSGSGSGTEFTLTISSLQSEDFAVYYCQQYNNWPRTFGQGTKVEIK yielded EC50 of > 1 µg/mL

The value of EC50 measured for the binder C013 (antibody, V domains shown) VH: QVQLVQSGAEVKKPGSSVKVSCKASGGTFSSYAISWVRQAPGQGLEWMGGIIPIFGTANYAQKFQGRVTITADESTSTAYMELSSLRSEDTAVYYCARGNRLLYCSSTSCYLDAVRQGYYYYYYMDVWGKGTTVTVSS VL: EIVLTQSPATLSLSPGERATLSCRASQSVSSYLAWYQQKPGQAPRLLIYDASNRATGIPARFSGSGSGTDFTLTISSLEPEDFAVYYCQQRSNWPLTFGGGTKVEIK turned out to be > 1 µg/mL

// data source = patent US11634477
